- Test system: NCI/ADR-RES ovarian
- PROCEDURE_TEXT: NCI-60 one-dose screen, 48 h (100 = growth as untreated, 0 = no growth, -100 = all killed)
- CONDITION_NOTES: 10 µM unless noted
About 83,000 compounds went through this panel and 20% of them were active in at least one assay; those are over-represented in the sample as a whole.
Recorded measurements of growth, one per entry
Numbers only; they are read as %.

Previously resolved entries follow.
# MOLECULE, OUTPUT_UNIT, growth
rows = [
    ("COC(=O)[C@@H](C)C[C@H](Cc1ccc(F)cc1)NC(=O)c1csc([C@@H](C[C@H](C(C)C)N(C)C(=O)[C@@H](NC(=O)[C@H]2CCCCN2C)C2CC2)OC(C)=O)n1", "%", 76.4),
    ("COc1cc2c(cc1OCCCn1c(-c3ccccn3)nc3ccccc31)N=C[C@@H]1CCCN1C2=O", "%", 3.97),
    ("CCCCCN(CCCCC)CC(O)c1cc(Cl)ccc1OC (configuration not stated)", "%", 32.4),
    ("COC(=O)[C@@H](NC(=O)c1cn(CCC2CCCCC2)c2ccccc12)C(C)(C)C", "%", 73.6),
    ("COC(=O)C1CCC(NC(=O)c2csc([C@@H](C[C@H](C(C)C)N(C)C(=O)[C@@H](NC(=O)[C@H]3CCCCN3C)C(C)C)OC(C)=O)n2)CC1 (some centres not stated)", "%", 11.8),
]

(Q) Name the reported growth value associated with the molecule Fc1ccc2c(c1)c(-c1nc(-c3c[nH]c4ncccc34)cs1)cn2CCCCN1CCCCC1
(A) -64.1

* * *

- System: LOX IMVI melanoma
- PROCEDURE_TEXT: NCI-60 one-dose screen, 48 h
- CONDITION_NOTES: 10 µM unless noted
The panel holds about 83,000 compounds, 20% with a hit somewhere; the sample as a whole holds those more often. Active and inactive are the calls of the source. How the source made its calls: active means growth percent below 10; inactive means the rest.
Answer with one of the outcomes Y for active, N for inactive

The examples below pair each entry with its known result.
# MOLECULE, CLASS
measured = [
    ("N#C[Se]Cc1cc(-c2ccccc2)n(-c2ccc(S(N)(=O)=O)cc2)n1", "Y"),
    ("O=C1C2C(C(=O)[N]1[Hg][c]1cccs1)C1(Cl)C(Cl)=C(Cl)C2(Cl)C1(Cl)Cl (centres undefined)", "Y"),
    ("COC1OC(CO)C(O)C(O)[CH]1[Hg][O]C(C)=O (centres undefined)", "N"),
    ("COC[C@@H]1C[C@@]2(C)[C@@H](CC[C@@H]3[C@@H]2CC[C@@]2(C)[C@H]3CC[C@]2(C)O)CC1=O", "N"),
    ("N/C(=N\\N=C\\c1ccc(-c2ccccc2)cc1)N[N+](=O)[O-]", "N"),
    ("CCN(CC)CCOC(=O)C(OC(C)C)(c1ccccc1)c1ccccc1", "N"),
    ("CC[C@H](C)[C@H](NC(=O)[C@H]1CCCCN1C)C(=O)N(C)[C@H](C[C@@H](OC(C)=O)c1cccc(C(=O)N[C@@H](Cc2ccccc2)C[C@H](C)C(=O)O)n1)C(C)C", "N"),
    ("COc1ccc(/C=C\\c2cc(OC)c(OC)c(OC)c2)cc1OCC(=O)Nc1nc2ccc(C(F)(F)F)cc2s1", "Y"),
    ("CC1[C@H](C)OC(=O)CC(O)CC(O)CC(O)CCC(O)C(O)C[C@]2(O)CC(O)C(C(=O)O)C(CC(OC3O[C@H](C)[C@@H](O)[C@H](N)[C@@H]3O)/C=C/C=C/C=C/C=C/CC/C=C/C=C/[C@H](C)[C@H]1O)O2 (some centres undefined)", "N"),
    ("COc1cc(C=Nc2cccc(C(=O)O)c2)ccc1N(CCCl)CCCl", "N"),
]

(Q) Recorded call for CC(C)(C)N1CC1C#N (centres undefined) ?
(A) N

(Q) Recorded call for CCC(O)(CN)c1ccccc1 (centres undefined) ?
(A) N

(Q) Recorded call for C#C[C@]1(OC(=O)CCCCCC)CC[C@H]2[C@@H]3CCC4=CC(=O)CC[C@@H]4[C@H]3CC[C@@]21C ?
(A) Y

(Q) Recorded call for CC(C)=CCC[C@H](C(=O)O)[C@@H]1CC[C@]2(C)C3=C(CC[C@@]12C)[C@@]1(C)CC[C@H](O)C(C)(C)[C@@H]1CC3 ?
(A) N

(Q) Recorded call for CC12CCC3C(C=CC4=C(N)C(=O)CCC43C)C1CCC2=O (centres undefined) ?
(A) N

(Q) Recorded call for C=C1C[C@](OC)([C@H](O)C(=O)N[C@@H](OC)[C@@H]2C[C@@H](O)C(C)(C)[C@@H](C[C@@H](COC)OC)O2)O[C@H](C)[C@@H]1C ?
(A) Y

(Q) Recorded call for COP(=S)(N1CC1)N1CC1 ?
(A) N

(Q) Recorded call for COc1ccc(/C=C\c2cc(OC)c(OC)c(OC)c2)cc1NS(=O)(=O)c1ccc(Cl)cc1 ?
(A) N

(Q) Recorded call for O=C(O)CNC(=O)C(Cl)(Cl)Cl ?
(A) N

* * *

- System: A549/ATCC NSCLC
- PROCEDURE_TEXT: NCI-60 one-dose screen, 48 h (100 = growth as untreated, 0 = no growth, -100 = all killed)
- CONDITION_NOTES: 10 µM unless noted
- Protocol: Growth inhibition of the A549/ATCC human Non-Small Cell Lung tumor cell line is measured as a screen for anti-cancer activity. Cells are grown in 96 well plates and exposed to the test compound for 48 hours. Compounds are tested at a single concentration, which is 10^-5 M for most compounds. The reported endpoint is percent growth (GI% or GIPRCNT), where numbers from 0 - 100% represent growth inhibition, and numbers from -100% - 0 represent cell death. […]
This is part of a sample that, as a whole, favours compounds with a hit. Of some 83,000 tested, about 20% had one in any assay.
Cut-off 60% on growth: below means true (1), at or above means false (0).

The examples below pair each entry with its known result.
# MOLECULE, CLASS
data = [
    ("O=C1N[C@@H]2[C@@H](O)[C@@H](O)[C@H](O)C[C@H]2c2cc3c(c(O)c21)OCO3", "true (1)"),
    ("COc1ccc(/C=C/c2cc(OC)c(OC)c(OC)c2)cc1NC(=O)/C=C/c1ccc(F)cc1", "true (1)"),
    ("NC(=O)C(Br)c1ccccc1 (stereo unspecified)", "false (0)"),
    ("CC(=O)Nc1nc2c(s1)CC[C@@]1(C)C2=CC[C@H]2[C@@H]3CC[C@H](O)[C@@]3(C)CC[C@@H]21", "true (1)"),
    ("CC1=C(CCCOC(=O)CN)C2=C(C)C3(CC3)[C@@](C)(O)C(=O)C2=C1", "false (0)"),
    ("ClCCN(CCCl)c1ccc(/C=N\\N=C\\c2ccc(N(CCCl)CCCl)cc2)cc1", "true (1)"),
    ("C[C@]12CC[C@H]3[C@@H](CC[C@]4(O)C[C@@H](O[C@@H]5O[C@H](CO)[C@@H](O[C@@H]6OC[C@@H](O)[C@H](O)[C@H]6O)[C@H](O)[C@H]5O)CC[C@]34C=O)[C@@]1(O)CC[C@@H]2C1=CC(=O)OC1", "true (1)"),
    ("CCOC(=O)N[C@H]1CCc2c(Br)c(OC)c(OC)c(OC)c2-c2ccc(SC)c(=O)cc21", "true (1)"),
]

(Q) Is growth strictly under 60% for the entry CNC(=O)Oc1cccc(C(F)(F)F)c1 ?
(A) false (0)

(Q) Is growth strictly under 60% for the entry O=C(N/N=C\c1ccc(N(CCCl)CCCl)cc1)c1cccc([N+](=O)[O-])c1 ?
(A) false (0)

(Q) Is growth strictly under 60% for the entry O=C(Nc1ccc(Cl)cc1)Nc1nccs1 ?
(A) true (1)

(Q) Is growth strictly under 60% for the entry CC[CH2][Sn]([Cl])([Cl])[CH2]CC ?
(A) false (0)

* * *

Recorded measurements of growth, one per entry
- Tested on: U251 CNS
- PROCEDURE_TEXT: NCI-60 one-dose screen, 48 h (100 = growth as untreated, 0 = no growth, -100 = all killed)
- CONDITION_NOTES: 10 µM unless noted
This is part of a sample that, as a whole, favours compounds with a hit. Of some 83,000 tested, about 20% had one in any assay.
Numbers only; they are read as %.

Previously resolved entries follow.
# COMPOUND, growth, %
records = [
    ("CCOP(=O)(Nc1ccc2c(c1)/C(=N/NC(N)=S)c1ccccc1-2)OCC", 94.8),
    ("COc1ccc(/C=C\\c2cc(OC)c(OC)c(OC)c2)c(NS(=O)(=O)c2ccc(Cl)cc2)c1O", 12.3),
    ("COC(=O)[C@@H](C)C[C@H](Cc1cn(C)c2ccccc12)NC(=O)c1csc([C@@H](C[C@H](C(C)C)N(C)C(=O)[C@@H](NC(=O)[C@H]2CCCCN2C)C(C)C)OC(C)=O)n1", 15.4),
    ("COc1ccc([As]=[As]c2ccc(OC)c(NCS(=O)(=O)O)c2)cc1NCS(=O)(=O)O (centres undefined)", -43),
    ("ClCCN(CCCl)c1ccc(/C=N/Nc2ncnc3nc[nH]c23)cc1", 67.6),
    ("COc1cc2c(cc1OCc1ccccc1)C(CC(C)C)=[N+](C)CC2", 49.1),
    ("COC(=O)[C@@H](C)C[C@H](Cc1ccccc1)NC(=O)c1csc([C@@H](C[C@H](C(C)C)N(C)C(=O)[C@@H](NC(=O)C23CC(NC(C)=O)(C2)C3)C2CC2)OC(C)=O)n1", 33.1),
    ("COc1cc2c(cc1OCCCCn1c(-c3cccs3)nc3ccccc31)N=C[C@@H]1CCCN1C2=O", -2.52),
]

(Q) Request body: readout growth, system U251 CNS, query COc1ccc(/C=C\c2cc(OC)c(OC)c(OC)c2)cc1OCC(=O)Nc1nc2ccc(C(F)(F)F)cc2s1 . Return the value.
(A) 18

(Q) Request body: readout growth, system U251 CNS, query O=[As](O)(O)c1ccccc1[As](=O)(O)O . Return the value.
(A) 93.6

(Q) Request body: readout growth, system U251 CNS, query COc1ccc(C2=N[C@@H](Cc3ccccc3)C(=O)Nc3ccsc32)cc1 . Return the value.
(A) 42.7

(Q) Request body: readout growth, system U251 CNS, query COc1cc(/C=C/[N+](=O)[O-])c([N+](=O)[O-])cc1OC . Return the value.
(A) 15.7

(Q) Request body: readout growth, system U251 CNS, query N/C(=N/N=C/c1ccncc1)N[N+](=O)[O-] . Return the value.
(A) 97.4

(Q) Request body: readout growth, system U251 CNS, query COC(=O)[C@@H](C)C[C@H](Cc1ccccc1)NC(=O)c1cccc([C@@H](C[C@H](C(C)C)N(C)C(=O)[C@@H](NC(=O)[C@H]2CCCCN2C)C(C)C)OC(C)=O)n1 . Return the value.
(A) 14.6

(Q) Request body: readout growth, system U251 CNS, query Clc1ccc(COC(Cn2ccnc2)c2ccc(Cl)cc2Cl)cc1 (centres undefined) . Return the value.
(A) 64.4

(Q) Request body: readout growth, system U251 CNS, query C[N+]12CN3CN(CN(C3)C1)C2 . Return the value.
(A) 100

(Q) Request body: readout growth, system U251 CNS, query O=C(CCCCCNC1=CC(=O)c2ccccc2C1=O)NCCC[Te]c1ccccc1 . Return the value.
(A) -8.56

(Q) Request body: readout growth, system U251 CNS, query C=C1[C@@H](C)[C@H]2[C@H](Cc3ccccc3)NC(=O)[C@]23[C@@H](O)/C=C/[C@@](C)(O)C(=O)[C@@H](C)C/C=C/[C@H]3[C@@H]1O . Return the value.
(A) 21.9

(Q) Request body: readout growth, system U251 CNS, query C[C@@]12CC=C3c4nc(Nc5cccc(O)c5)sc4CC[C@]3(C)[C@H]1CC[C@]1(C)C(=O)CC[C@@H]21 . Return the value.
(A) 18.8
